Read-out: CD69, CD69 (gene 969)
assay_overview: BSK_SAg_CD69: BioMAP Diversity Plus: SAg Assay for CD69 Biomarker Activity (AID 2283089)
condition_notes: primary human HUVEC with PBMC; actives raise or lower the signal
The source made the active and inactive calls. The calls were made as follows: active = hit-call score of the fitted dose curve at least 0.9, where 1 is the maximum; inactive = score below 0.9.
Field 'call' accepts Y = active, N = inactive

Worked examples follow.
* Cc1ccc(OP(=O)(Oc2ccc(C)cc2)Oc2ccc(C)cc2)cc1 (tested in a mixture with another compound) | Y
* COC(C)(C)CCC[C@H](C)C/C=C/C(C)=C/C(=O)OC(C)C | Y
* CCCCCCCCCCCC#N | Y
* CCCOC(=O)c1ccccc1C(=O)OCCC | N

Query :: Which result was noted for this compound in the test: O=P1(NCCCl)OCCCN1CCCl (stereo unspecified)
Result :: N

Query :: Which result was noted for this compound in the test: CC(C)CCCCCCCOP(=O)(Oc1ccccc1)Oc1ccccc1
Result :: Y
